Measurement Target: human mu receptor (Homo sapiens, UniProt P35372)
Construct: expressed in transfected cells; host or cells: CHO cells stably coexpressing the receptor and chimeric Gαqi5
Sequence (P35372 whole entry): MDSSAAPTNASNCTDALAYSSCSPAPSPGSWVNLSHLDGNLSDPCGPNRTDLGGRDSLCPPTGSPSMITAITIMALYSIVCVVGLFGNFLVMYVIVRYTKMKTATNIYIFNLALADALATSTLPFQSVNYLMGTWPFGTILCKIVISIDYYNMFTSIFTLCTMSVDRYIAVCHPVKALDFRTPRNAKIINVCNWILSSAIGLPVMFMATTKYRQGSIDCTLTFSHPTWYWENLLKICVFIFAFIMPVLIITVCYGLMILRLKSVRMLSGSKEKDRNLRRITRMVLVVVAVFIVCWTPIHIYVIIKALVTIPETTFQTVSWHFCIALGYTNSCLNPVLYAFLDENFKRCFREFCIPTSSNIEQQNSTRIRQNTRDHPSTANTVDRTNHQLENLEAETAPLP
Protocol Summary: Calcium mobilization, mu opioid receptor
Format: cell-based
Test Conditions: Table 1 series; CHO cells coexpressing human mu receptor and Gαqi5, Fluo-4 AM, 37 °C; mean of at least three experiments in duplicate; CL95% in brackets
Where a SMILES comes first, the peptide text is derived from it. [ ]: non-standard residue; d: D form. Nle = CCCC[C@H](N)C(=O)O; Nva = CCC[C@H](N)C(=O)O
Reported mu pEC50 (CL95%) values for a set of molecules

{"Molecule": "CCC[C@H](NC(=O)[C@H](Cc1ccccc1)NC(=O)CNC(=O)CNC(=O)[C@@H](N)Cc1ccc(O)cc1)C(=O)NCC(=O)N[C@@H](C)C(=O)N[C@@H](CCCNC(=N)N)C(=O)N[C@@H](CCCCN)C(=O)N[C@@H](CO)C(=O)N[C@@H](C)C(=O)N[C@@H](CCCNC(=N)N)C(=O)N[C@@H](CCCCN)C(N)=O [Compound 13, [Tyr^1,Nva^5]N/OFQ(1-13)-NH2] (H-YGGF[Nva]GARKSARK-NH2)", "Quantity Kind": "mu pEC50 (CL95%)", "Observed Measurement": "6.25 (5.59–6.91)"}

stdin: Bench note: what mu pEC50 (CL95%) did CCCC[C@H](NC(=O)[C@H](Cc1ccccc1)NC(=O)CNC(=O)CNC(=O)[C@@H](N)Cc1ccc(O)cc1)C(=O)NCC(=O)N[C@@H](C)C(=O)N[C@@H](CCCNC(=N)N)C(=O)N[C@@H](CCCCN)C(=O)N[C@@H](CO)C(=O)N[C@@H](C)C(=O)N[C@@H](CCCNC(=N)N)C(=O)N[C@@H](CCCCN)C(N)=O [Compound 12, [Tyr^1,Nle^5]N/OFQ(1-13)-NH2] (H-YGGF[Nle]GARKSARK-NH2) show?
stdout: 6.74 (6.15–7.33)
